Exercise: for every item that follows, state its recorded Growth Rate T/C (%).
System: ascites-tumor Sarcoma 180A
Assay type: in vivo, ddN mice
Experimental parameters: 1 mg/kg i.p., daily from one to five days
One number for each entry, in %.

// each molecule listed below needs its Growth Rate T/C (%)
1. NC1CCCCC1N.[Cl][Pt][Cl] (stereo not drawn) [cis-dichloro (1,2-DAC) Pt(II), reference compound]
2. NC1CCCCC1N.[Cl][Pt][Cl] (centres unmarked) [Compound No. 2]
3. NC1CCCCC1N.[Cl-].[Cl-].[Pt+2] (centres unmarked) [Compound No. 3]

1. 19
2. 8
3. 18

Below are 2 molecules. Give each one its Growth Rate T/C (%).
1. NC1CCCCC1N.[Cl-].[Cl-].[Pt+2] (centres unmarked) [Compound No. 1]
2. NC1CCCCC1N.O=C1[O][Pt][O]C1=O (centres unmarked)

1. 57
2. 0
